Biological target: murine FolR1 (Mus musculus, UniProt P35846)
Sequence (P35846 with tags, fused parts or gaps): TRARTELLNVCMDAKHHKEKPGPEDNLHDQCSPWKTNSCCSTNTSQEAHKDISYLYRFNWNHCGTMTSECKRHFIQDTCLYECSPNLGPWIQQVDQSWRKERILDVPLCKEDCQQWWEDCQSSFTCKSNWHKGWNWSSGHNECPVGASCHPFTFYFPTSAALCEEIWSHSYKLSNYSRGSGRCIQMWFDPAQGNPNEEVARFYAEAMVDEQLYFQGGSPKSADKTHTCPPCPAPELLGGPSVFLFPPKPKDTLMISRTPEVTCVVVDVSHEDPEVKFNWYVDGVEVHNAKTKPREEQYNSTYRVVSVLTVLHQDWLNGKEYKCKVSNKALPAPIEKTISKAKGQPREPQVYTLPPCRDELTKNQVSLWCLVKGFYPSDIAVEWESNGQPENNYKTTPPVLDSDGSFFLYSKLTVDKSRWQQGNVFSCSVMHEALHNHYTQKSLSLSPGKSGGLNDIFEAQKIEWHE
Sequence (as listed by the source partner): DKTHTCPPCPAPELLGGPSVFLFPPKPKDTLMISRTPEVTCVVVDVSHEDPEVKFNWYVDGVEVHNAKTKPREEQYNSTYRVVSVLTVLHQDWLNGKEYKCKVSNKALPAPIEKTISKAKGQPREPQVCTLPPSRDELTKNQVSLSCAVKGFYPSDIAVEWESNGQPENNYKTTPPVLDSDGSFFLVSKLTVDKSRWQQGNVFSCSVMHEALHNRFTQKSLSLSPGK
Conditions: IgG injected for 60 seconds at 500 nM

# molecule, Binding to muFolR1
rows = [
    ("Mov19: reference molecule, the human FolR1 binder Mov19 (IgG) (antibody, V domains shown) VH: QVQLQQSGAELVKPGASVKISCKASGYSFTGYFMNWVKQSHGKSLEWIGRIHPYDGDTFYNQNFKDKATLTVDKSSNTAHMELLSLTSEDFAVYYCTRYDGSRAMDYWGQGTTVTVSS VL: DIELTQSPASLAVSLGQRAIISCKASQSVSFAGTSLMHWYHQKPGQQPKLLIYRASNLEAGVPTRFSGSGSKTDFTLNIHPVEEEDAATYYCQQSREYPYTFGGGTKLEIK", "−"),
    ("6B6: anti-FolR1 clone, generic multi-framework library (Vk3_20/VH1_46); Fab and IgG (antibody, V domains shown) VH: QVQLVQSGAEVKKPGASVKVSCKASGYTFTSYYMHWVRQAPGQGLEWMGIINPSGGSTSYAQKFQGRVTMTRDTSTSTVYMELSSLRSEDTAVYYCARSYVDMDYWGQGTLVTVSS VL: EIVLTQSPGTLSLSPGERATLSCRASQSVSSSYLAWYQQKPGQAPRLLIYGASSRATGIPDRFSGSGSGTDFTLTISRLEPEDFAVYYCQQDIWSPTFGQGTKVEIK", "−"),
]
